target: TARP γ8 dependent AMPA receptor (GluA1o-g8 fusion channel) (Homo sapiens (Human), UniProt P42261+Q8WXS5); test: Calcium flux assay (FLIPR), HEK293 cells expressing GRIA1o-CACNG8 fusion; type: cell-based; details: inhibition of calcium flux after 15 μM glutamate, read-out: GluR1-γ8 pIC50 (converted)
Sequence (P42261 other isoform, or with tags, fused parts or gaps): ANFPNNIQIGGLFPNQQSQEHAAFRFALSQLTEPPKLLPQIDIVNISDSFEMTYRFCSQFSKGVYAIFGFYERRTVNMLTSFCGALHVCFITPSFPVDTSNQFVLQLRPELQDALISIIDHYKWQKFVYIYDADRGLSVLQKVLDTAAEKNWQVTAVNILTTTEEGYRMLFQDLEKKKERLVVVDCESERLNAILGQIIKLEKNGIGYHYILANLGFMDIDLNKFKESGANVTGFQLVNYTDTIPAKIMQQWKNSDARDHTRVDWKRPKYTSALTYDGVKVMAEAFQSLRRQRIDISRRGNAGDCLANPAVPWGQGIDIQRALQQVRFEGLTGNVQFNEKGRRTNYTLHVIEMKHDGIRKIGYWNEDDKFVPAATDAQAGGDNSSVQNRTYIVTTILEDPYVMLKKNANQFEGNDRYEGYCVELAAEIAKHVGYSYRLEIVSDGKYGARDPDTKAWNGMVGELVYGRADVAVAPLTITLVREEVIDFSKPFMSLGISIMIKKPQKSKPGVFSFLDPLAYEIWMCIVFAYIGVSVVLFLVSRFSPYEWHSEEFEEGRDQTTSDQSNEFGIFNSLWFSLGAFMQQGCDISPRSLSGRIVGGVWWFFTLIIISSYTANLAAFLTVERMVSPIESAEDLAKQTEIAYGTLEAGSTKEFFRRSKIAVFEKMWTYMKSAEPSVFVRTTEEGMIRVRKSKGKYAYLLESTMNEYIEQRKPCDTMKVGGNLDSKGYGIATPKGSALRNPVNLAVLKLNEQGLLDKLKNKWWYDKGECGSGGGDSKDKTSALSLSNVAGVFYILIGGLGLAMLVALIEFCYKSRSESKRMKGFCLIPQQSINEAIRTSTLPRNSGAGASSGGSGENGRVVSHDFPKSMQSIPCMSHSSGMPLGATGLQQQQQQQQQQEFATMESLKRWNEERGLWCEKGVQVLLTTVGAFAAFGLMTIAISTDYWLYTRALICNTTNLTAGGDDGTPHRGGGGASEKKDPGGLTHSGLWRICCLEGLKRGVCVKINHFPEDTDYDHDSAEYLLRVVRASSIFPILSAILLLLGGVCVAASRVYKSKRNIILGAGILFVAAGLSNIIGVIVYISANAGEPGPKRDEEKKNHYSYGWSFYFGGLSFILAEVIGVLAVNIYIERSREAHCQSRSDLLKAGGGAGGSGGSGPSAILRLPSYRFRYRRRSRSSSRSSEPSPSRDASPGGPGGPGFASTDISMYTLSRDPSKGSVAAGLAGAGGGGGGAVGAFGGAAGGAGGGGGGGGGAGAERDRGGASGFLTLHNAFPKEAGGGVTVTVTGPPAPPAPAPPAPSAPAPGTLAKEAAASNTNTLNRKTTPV
reported.endpoint: IC50 (nM)

Illustrative cases are given below, each with its answer.
Cc1c(CN2CC3CC(C2)O3)cccc1-c1ccc2[nH]c(=O)[nH]c2c1 [Example 158] ... 6310
O=c1[nH]c2ccc(-c3cccc(N4CCCCC4)c3Cl)cc2[nH]1 [Example 188] ... 12.6
Cc1cccc(-c2ccc3[nH]c(=O)[nH]c3c2)c1C [Example 1] ... 251
Cc1cccc(-c2ccc(F)cc2)c1-c1ccc2[nH]c(=O)[nH]c2c1 [Example 181] ... 100
Cc1c(-c2ccc3[nH]c(=O)[nH]c3c2)cccc1-c1ncon1 [Example 206] ... 31.6
O=c1[nH]c2ccc(-c3cccc(CN4CCCCC4)c3Cl)cc2[nH]1 [Example 142] ... 631
Cc1c(-c2ccc3[nH]c(=O)[nH]c3c2)cccc1C(F)(F)F [Example 60] ... 79.4
Cc1ccc(Cl)c(-c2ccc3[nH]c(=O)[nH]c3c2)c1Cl [Example 23] ... 15.8
Cc1cccc(F)c1-c1ccc2[nH]c(=O)[nH]c2c1 [Example 54] ... 251
COc1cc(OC(F)(F)F)ccc1-c1ccc2[nH]c(=O)[nH]c2c1 [Example 33] ... 316

[P] COC(=O)c1ccc(C)c(-c2ccc3[nH]c(=O)[nH]c3c2)c1 [Example 47]
[Q] CC(Oc1cccc(Cl)c1-c1ccc2[nH]c(=O)[nH]c2c1)C(F)(F)F (racemic) [Example 118]
[R] Cn1ccc(-c2cccc(-c3ccc4[nH]c(=O)[nH]c4c3)c2Cl)n1 [Example 183]
IN: Rank by IC50 (largest to smallest). Your task in answering is to list the labels in the requested order.
OUT: R, P, Q

[A] O=c1[nH]c2ccc(-c3c(Cl)cc(Cl)cc3Cl)cc2[nH]1 [Example 51]
[B] Cc1c(CN2CCOC(C(F)(F)F)C2)cccc1-c1ccc2[nH]c(=O)[nH]c2c1 (racemic) [Example 151]
IN: Between A and B , whose measured IC50 reads higher? Indicate which entry you chose by stating its label.
OUT: A
(A: 501 nM, B: 31.6 nM)

[A] Cc1ccc(C)c(-c2ccc3[nH]c(=O)[nH]c3c2)c1 [Example 21]
[B] O=c1[nH]c2ccc(-c3c(Cl)cccc3CN3CCOCC3)cc2[nH]1 [Example 145]
[C] CC(C#N)c1cccc(Cl)c1-c1ccc2[nH]c(=O)[nH]c2c1 (racemic) [Example 126]
[D] COCCn1cc(-c2cccc(Cl)c2-c2ccc3[nH]c(=O)[nH]c3c2)cn1 [Example 172]
[E] O=c1[nH]c2ccc(-c3c(Cl)cccc3-c3ccc(F)cc3)cc2[nH]1 [Example 163]
IN: Rank by IC50 (largest to smallest). Your task in answering is to list the labels in the requested order.
OUT: D, B, A, E, C
(D: 2000 nM, B: 1000 nM, A: 398 nM, E: 20 nM, C: 12.6 nM)

[I] Cc1nc(-c2cccc(-c3ccc4[nH]c(=O)sc4c3)c2C)no1 [Example 72]
[II] CC(C)Oc1ccc(C(F)(F)F)cc1-c1ccc2[nH]c(=O)[nH]c2c1 [Example 22]
[III] N#CCc1cccc(Cl)c1-c1ccc2[nH]c(=O)sc2c1 [Example 133]
[IV] Cc1c(-c2ccc3[nH]c(=O)sc3c2)cccc1-c1ncno1 [Example 200]
IN: Rank by IC50 (largest to smallest). Your task in answering is to list the labels in the requested order.
OUT: IV, I, II, III

[1] O=c1[nH]c2ccc(-c3c(Cl)cncc3Cl)cc2s1 [Example 134]
[2] Cc1ccnc(Cl)c1-c1ccc2[nH]c(=O)[nH]c2c1 [Example 70]
IN: Between 1 and 2 , whose measured IC50 reads higher? Indicate which entry you chose by stating its label.
OUT: 2
